Recorded Emax, one value per entry.
# SUBJECT_OF_TEST: human Farnesoid X receptor ligand-binding domain/Gal4 DNA binding domain chimera (Homo sapiens (Human), UniProt Q96RI1)
# Sequence (Q96RI1 262-486, change not shown): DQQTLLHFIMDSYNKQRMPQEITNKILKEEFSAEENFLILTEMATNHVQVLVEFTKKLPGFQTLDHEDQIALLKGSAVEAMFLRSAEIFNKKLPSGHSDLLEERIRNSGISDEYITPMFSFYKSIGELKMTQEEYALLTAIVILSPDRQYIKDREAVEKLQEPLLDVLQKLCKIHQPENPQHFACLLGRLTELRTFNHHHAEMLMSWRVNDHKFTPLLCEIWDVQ
# Sequence (P04386 1-147 partner): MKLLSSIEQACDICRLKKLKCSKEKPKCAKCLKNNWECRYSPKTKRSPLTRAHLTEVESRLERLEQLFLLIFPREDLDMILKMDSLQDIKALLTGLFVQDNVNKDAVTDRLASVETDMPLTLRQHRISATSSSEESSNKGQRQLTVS
# EXPERIMENTAL_DETAILS: Cell-based assay of FXR activation (FXR-UAS-bla HEK 293T beta-lactamase reporter)
# EXPERIMENTAL_PARAMETERS: HEK-293T; extent of activation relative to GW4064; cellular FXR beta-lactamase reporter assay; read-out: % Efficacy
All answers are understood in %, so give the number only.

// lookup Emax for Cc1cccc(C)c1-c1noc(C2CC2)c1CO[C@@H]1C[C@@H]2C[C@H]1CN2c1nc2c(C)cc(C(=O)O)cc2s1 [Compound I-276] 114

O=C(O)CNC(=O)c1ccc(N2C(=O)[C@@H]3C[C@H]2C[C@H]3OCc2c(-c3c(Cl)cccc3Cl)noc2C2CC2)cc1 [Compound I-358] ? 124

O=C(NS(=O)(=O)CCOC(=O)C1CC1)c1ccc(N2C[C@@H]3C[C@H]2C[C@H]3OCc2c(-c3c(Cl)cccc3Cl)noc2C2CC2)cc1 [Compound I-212] ? 107

Cc1cccc(Cl)c1-c1noc(C2CC2)c1CO[C@@H]1C[C@@H]2C[C@H]1CN2c1nc2c([C@@H]3CCOC3)cc(C(=O)O)cc2s1 [Compound I-273] ? 106

New cases:
// lookup Emax for O=C(O)c1cc(C2CCCC2)c2nc(N3C[C@@H]4C[C@H]3C[C@H]4OCc3c(C4CCC5(CC4)CC5)noc3C3CC3)sc2c1 [Compound I-283] 104

O=C(O)c1cc(OCC(F)(F)F)c2nc(N3C[C@@H]4C[C@H]3C[C@H]4OC(=O)c3c(-c4c(Cl)cccc4Cl)noc3C3CC3)sc2c1 [Compound I-7] ? 119

O=C(O)c1cc(C2CCOC2)c2nc(N3C(=O)[C@@H]4C[C@H]3C[C@H]4OCc3c(-c4c(Cl)cccc4Cl)noc3C3CC3)sc2c1 (stereo partly drawn) [Compound I-299] ? 108

O=C(O)CCc1ccc(N2C[C@@H]3C[C@H]2C[C@H]3OCc2c(-c3c(Cl)cccc3Cl)noc2C2CC2)cc1F [Compound I-155] ? 102

O=C(NS(=O)(=O)CC1CCOCC1)c1ccc(N2C(=O)[C@@H]3C[C@H]2C[C@H]3OCc2c(-c3c(Cl)cccc3Cl)noc2C2CC2)cc1 [Compound I-339] ? 118

Cc1cccc(Cl)c1-c1noc(C2CC2)c1CO[C@@H]1C[C@@H]2C[C@H]1CN2c1ccc(C(=O)O)c(F)c1 [Compound I-115] ? 108

CS(=O)(=O)CCNC(=O)c1ccc(N2C[C@@H]3C[C@H]2C[C@H]3OCc2c(-c3c(Cl)cccc3Cl)noc2C2CC2)cc1 [Compound I-169] ? 106

O=C(O)c1cc([C@H]2CCOC2)c2nc(N3C[C@@H]4C[C@H]3C[C@H]4OCc3c(-c4c(F)cccc4Cl)noc3C3CC3)sc2c1 [Compound I-265] ? 110

The measurements presented in this section are drawn from patent US10793568B2.
